# Tested on: Mycobacterium tuberculosis
# Experiment Notes: MMV: CRC and MIC90 against Mtb (replicating)
# Assay type: functional
Provide the reported MIC90 of each item.
// units = µM; emit number, no label

Request: Name the reported MIC90 value associated with the compound COCCNCC(O)Cn1c2ccc(Cl)cc2c2cc(Cl)ccc21 (configuration not stated)
Response: 11.6

Request: Name the reported MIC90 value associated with the compound Cc1ccc(Nc2nc(-c3ccccn3)cs2)cc1
Response: 50.7

Request: Name the reported MIC90 value associated with the compound OC(CNC1CCCCC1)Cn1c2ccccc2c2ccccc21 (configuration not stated)
Response: 55.9

Request: Name the reported MIC90 value associated with the compound O=C(Nc1ccc(Br)cc1)Nc1cccc(Cl)c1
Response: 44.6

Request: Name the reported MIC90 value associated with the compound c1ccc(CNc2nc(Nc3ccccc3)nc3ccccc23)cc1
Response: 7.46

Request: Name the reported MIC90 value associated with the compound CC(=O)c1ccc(NC(=O)CSc2nc(-c3ccccc3Cl)ns2)cc1
Response: 14

Request: Name the reported MIC90 value associated with the compound COc1ccc(C2NCCc3c2[nH]c2ccccc32)cc1CN1CCN(c2ccc(F)cc2)CC1 (configuration not stated)
Response: 25.9

Request: Name the reported MIC90 value associated with the compound O=C(Nc1nc(-c2ccccn2)cs1)c1ccccc1Br
Response: 48.7

Request: Name the reported MIC90 value associated with the compound CN1CCN(c2ccc(Nc3c4ccccc4nc4ccccc34)cc2)CC1
Response: 45.1

Request: Name the reported MIC90 value associated with the compound CCOc1ccc2nc(C)cc(Nc3ccc(Br)cc3)c2c1
Response: 18.7

Request: Name the reported MIC90 value associated with the compound OCCNc1nc(Nc2ccc(Cl)c(Cl)c2)nc2ccccc12
Response: 3.59

Request: Name the reported MIC90 value associated with the compound Cc1ccc(Nc2nc(N)c3ccccc3n2)cc1Cl
Response: 24.7

====

Provide the reported log10 of CC50 of each item.
# Experiment Notes: MMV: Cytotoxicity CRC and LD50 against HepG2
# Type: toxicity, cell-based
# Conditions: human, HepG2 cells; read-out: LD50 (the source's name)
Lab note - CC50 converted to log10 from values in µM.

Request: Name the reported log10 of CC50 value associated with the compound CC(C)(C)CC(C)(C)NCC(O)COc1ccc(Cl)cc1Cl (stereo not given)
Response: 0.55

Request: Name the reported log10 of CC50 value associated with the compound Cc1cc(NCCN2CCCCC2)c2ccc3ccccc3c2n1
Response: 0.31

Request: Name the reported log10 of CC50 value associated with the compound CC(C)CCNCC(O)Cn1c2ccccc2c2ccccc21 (stereo not given)
Response: 0.68

Request: Name the reported log10 of CC50 value associated with the compound CCCCOC(=O)c1ccc(Nc2cc(C)nc3ccc(OC)cc23)cc1
Response: 0.84

Request: Name the reported log10 of CC50 value associated with the compound Oc1ccc2ccccc2c1CNc1nc2ccccc2[nH]1
Response: 1.15

Request: Name the reported log10 of CC50 value associated with the compound OC(CNC1CCCCC1)Cn1c2ccccc2c2ccccc21 (stereo not given)
Response: 0.70

Request: Name the reported log10 of CC50 value associated with the compound OC(CNCc1ccccc1)Cn1c2ccccc2c2ccccc21 (stereo not given)
Response: 0.76

Request: Name the reported log10 of CC50 value associated with the compound FC(F)(F)c1cccc(Nc2nc3ccccc3nc2Nc2cccc(C(F)(F)F)c2)c1
Response: 0.20

Request: Name the reported log10 of CC50 value associated with the compound O=C1c2ccc3c4c(ccc(c24)C(=O)N1CCCCO)C(=O)N(CCCCO)C3=O
Response: -0.04

Request: Name the reported log10 of CC50 value associated with the compound Cc1cc(C)c2nc(N3CCC(C(=O)NCCCN4CCC(N5CCCCC5)CC4)CC3)sc2c1
Response: 0.41

Request: Name the reported log10 of CC50 value associated with the compound CCOc1ccc2nc(C)cc(Nc3ccc(Br)cc3)c2c1
Response: 0.60

Request: Name the reported log10 of CC50 value associated with the compound COc1cccc(Nc2nc(NCCO)c3ccccc3n2)c1
Response: 1.41

Request: Name the reported log10 of CC50 value associated with the compound CC(C)(C)CC(C)(C)NCC(O)COc1ccc2c(c1)CCC2 (stereo not given)
Response: 0.92

Request: Name the reported log10 of CC50 value associated with the compound CC(=O)c1ccc(NC(=O)CSc2nc(-c3ccccc3Cl)ns2)cc1
Response: 1.61

Request: Name the reported log10 of CC50 value associated with the compound O=C(NC1CCN(Cc2ccccc2)CC1)c1cc(-c2ccncc2)nc2ccc(Cl)cc12
Response: 0.85

Request: Name the reported log10 of CC50 value associated with the compound COc1ccc(-c2cc(=O)oc3c4c(ccc23)OCN(Cc2ccc(F)cc2)C4)cc1
Response: 1.61

Request: Name the reported log10 of CC50 value associated with the compound OCCNc1nc(Nc2ccc(Cl)c(Cl)c2)nc2ccccc12
Response: 0.86

Request: Name the reported log10 of CC50 value associated with the compound O=C(Nc1cccc(C(F)(F)F)c1)c1cc(Cl)ccc1O
Response: 0.00

Request: Name the reported log10 of CC50 value associated with the compound O=C(Nc1ccc(F)c(Cl)c1)Nc1ccc(Cl)c(Cl)c1
Response: 0.64

Request: Name the reported log10 of CC50 value associated with the compound COc1ccc(C2c3ccc4ccccc4c3Oc3ncn(CCCN(C)C)c(=N)c32)cc1 (stereo not given)
Response: 0.18

Request: Name the reported log10 of CC50 value associated with the compound Nc1ccc(-c2nc3cc(Oc4ccc(Oc5ccc6[nH]c(-c7ccc(N)cc7)nc6c5)cc4)ccc3[nH]2)cc1
Response: 0.73

Request: Name the reported log10 of CC50 value associated with the compound c1ccc(CNc2nc(Nc3ccccc3)nc3ccccc23)cc1
Response: 0.62

Request: Name the reported log10 of CC50 value associated with the compound CCOc1ccc2nc(C)cc(Nc3ccc(N(C)C)cc3)c2c1
Response: 0.87

Request: Name the reported log10 of CC50 value associated with the compound Cc1cc(Nc2cccc(F)c2)nc(NCc2ccccc2)n1
Response: 0.86

Request: Name the reported log10 of CC50 value associated with the compound C[n+]1c2ccccc2nc2ccc(NCCO)cc21
Response: 0.82

Request: Name the reported log10 of CC50 value associated with the compound Cc1ccc(NC(=O)Nc2cccc(Cl)c2)cc1F
Response: 1.05

Request: Name the reported log10 of CC50 value associated with the compound Cc1ccc(Nc2nc(NCCO)c3ccccc3n2)cc1C
Response: 0.74

Request: Name the reported log10 of CC50 value associated with the compound Clc1ccc2c(N3CCCC3)ccnc2c1
Response: 1.54

Request: Name the reported log10 of CC50 value associated with the compound COc1ccc(C2NCCc3c2[nH]c2ccccc32)cc1CN1CCN(c2ccc(F)cc2)CC1 (stereo not given)
Response: 0.36

Request: Name the reported log10 of CC50 value associated with the compound COc1ccc(Nc2cc(C)nc(NCc3ccccc3)n2)cc1
Response: 0.84

Request: Name the reported log10 of CC50 value associated with the compound Clc1cc(Br)ccc1-c1ccc(CNCC2CCNCC2)o1
Response: 0.25

Request: Name the reported log10 of CC50 value associated with the compound N=c1n(CCN2CCCCC2)c2ccccc2n1CC(=O)c1ccc(Cl)c(Cl)c1
Response: 0.81

Request: Name the reported log10 of CC50 value associated with the compound COc1ccc(Nc2nc(NCc3ccccc3)c3ccccc3n2)cc1
Response: 0.41

Request: Name the reported log10 of CC50 value associated with the compound Nc1ccc(-c2nc3cc(Cc4ccc5[nH]c(-c6ccc(N)cc6)nc5c4)ccc3[nH]2)cc1
Response: 0.39

Request: Name the reported log10 of CC50 value associated with the compound Cc1ccc(Cl)cc1N1CCN(CCCNC(=O)C2CCN(c3nc4ccccc4[nH]3)CC2)CC1
Response: 0.68

Request: Name the reported log10 of CC50 value associated with the compound CSc1ccccc1C(=O)Nc1nc(-c2ccccn2)cs1
Response: 1.08

Request: Name the reported log10 of CC50 value associated with the compound Cc1cc(N(C)C)nc(Nc2ccc(NC(=O)Nc3ccccc3)cc2)n1
Response: 1.05

Request: Name the reported log10 of CC50 value associated with the compound Brc1ccc(Nc2nc3ccccc3nc2Nc2ccc(Br)cc2)cc1
Response: 0.43

Request: Name the reported log10 of CC50 value associated with the compound COCCNCC(O)Cn1c2ccc(Cl)cc2c2cc(Cl)ccc21 (stereo not given)
Response: 0.59

Request: Name the reported log10 of CC50 value associated with the compound Cc1cc(N2CCCC2)nc(Nc2ccc(NC(=O)CCc3ccccc3)cc2)n1
Response: 0.42

Request: Name the reported log10 of CC50 value associated with the compound CCCCCn1c(=N)n(CC(O)COc2cccc(C)c2)c2ccccc21 (stereo not given)
Response: 0.69

Request: Name the reported log10 of CC50 value associated with the compound CCCCCCn1c(=N)n(CC(O)COc2cccc(C)c2)c2ccccc21 (stereo not given)
Response: 0.51

Request: Name the reported log10 of CC50 value associated with the compound O=C(Nc1ccc(Cl)c(Cl)c1)Nc1ccc(Cl)c(Cl)c1
Response: 0.81

Request: Name the reported log10 of CC50 value associated with the compound Cc1cc(Nc2ccc(OCc3ccccc3)cc2)nc2cc(O)ccc12
Response: 0.91
